Record form. Attribute: PKA percent inhibition (phosphorylation of histone). Fill in for each entry.
# Tested on: Protein kinase A catalytic subunit
# Procedure Details: Inhibition of protein kinase A phosphorylation of histone
# Format: biochemical
# Assay Context: percent inhibition at the maximum concentration tested 100 μM
Counter-ions that a name gives are not always drawn.
One number for each entry, in %.

The cases that follow already have their PKA percent inhibition (phosphorylation of histone) on record.
{"columns": ["Molecule", "Reported Value"],
 "data": [
  ["CCCCCCCCCCCCC(=O)N1CCCCC1CNC(=O)[C@@H](N)CCCCN (stereo partly drawn) [2,6-diamino-N-([1-(1-oxotridecyl)-2-piperidinyl]methyl)hexan] [dihydrochloride]", 0],
  ["CCCCCCCCCCCCC(=O)N1CCCCC1CNC(=O)[C@@H](N)CCC(N)=O (stereo partly drawn) [hydrochloride]", 0]
]}

Data request: I am curious: what PKA percent inhibition (phosphorylation of histone) value has been reported for CCCCCCCCCCCCC/C=C/[C@@H](O)[C@@H](N)CO [Sphingosine, reference compound] ?
Data returned: 88

* * *

# Tested Target: protein kinase C from mouse brains
# Procedure Details: 3H-Phorbol dibutyrate binding (inhibition of binding of phorbol ester to protein kinase C)
# Assay Context: IC50 determined with program EBDA; dihydrochloride
Counter-ions that a name gives are not always drawn.
For each record, write down the corresponding pIC50.
Numbers only, as −log10 of the molar value.

{"columns": ["Molecule", "Tested Target", "pIC50"],
 "data": [
  ["CCCCCCCCCCCCC(=O)N1CCCCC1CNC(=O)[C@@H](N)CCCCN (some centres unmarked) [2,6-diamino-N-([1-(1-oxotridecyl)-2-piperidinyl]methylhexana] [dihydrochloride]", "protein kinase C from mouse brains", 3.88]
]}

API: the following record is the query input.
Data request: Quick one: pIC50 for CCCCCCCCCCCCC(=O)N1CCCCC1CNC(=O)[C@@H](N)CCCCN (some centres unmarked) [2,6-diamino-N-([1-(1-oxotridecyl)-2-piperidinyl]methyl)hexan] [dihydrochloride] ?
Data returned: 3.72

* * *

Would you mind telling me the reported log10 IC50 of each entry?
# Tested Target: Protein kinase C from mouse brain
# Procedure Details: Inhibition of PKC phosphorylation of histone
# Format: biochemical
# Assay Context: mouse brain PKC, histone, 30° C., 5 minutes; read-out: PKC IC50 (phosphorylation of histone)
Structures can show the parent of a compound that is named as a salt.
Heads up: the numbers are on a log10 scale; they represent IC50 in µM.

Example results:
{"columns": ["Compound", "Reported Value"],
 "data": [
  ["CCCCCCCCCCCCC(=O)N1CCCCC1CNC(=O)[C@@H](N)Cc1c[nH]cn1 (stereo partly shown) [dihydrochloride]", 1.78],
  ["CCCCCCCCCCCCC(=O)N1CCCCC1CNC(=O)[C@@H](N)CCCCN (stereo partly shown) [2,6-diamino-N-([1-(1-oxotridecyl)-2-piperidinyl]methyl)hexan] [dihydrochloride]", 1.11],
  ["CC1CNCCN1S(=O)(=O)c1cccc2cnccc12 (stereo not shown) [Example H-7, reference compound]", 0.95]
]}

I have 4 compounds here; please give me log10 IC50 for each one.
1. CCCCCCCCCCCCC/C=C/[C@@H](O)[C@@H](N)CO [Sphingosine, reference compound]
2. CCCCCCCCCCCC(=O)N1CCC[C@H]1CNC(=O)[C@@H](N)CCCCN [dihydrochloride]
3. CCCCCCCCCCCCC(=O)N1CCCCC1CNC(=O)[C@@H](N)CC(=O)OCc1ccccc1 (stereo partly shown) [hydrochloride]
4. CCCCCCCCCCCCC(=O)N1CCCCC1CNC(=O)[C@@H](N)CCCN (stereo partly shown) [dihydrochloride]

Data returned:
1.18
1.66
1.96
1.26

* * *

Kindly state % inhibition @ 100 μM (3H-phorbol dibutyrate binding) for each of the entries shown.
# Tested on: protein kinase C from mouse brains
# Procedure Details: 3H-Phorbol dibutyrate binding (inhibition of binding of phorbol ester to protein kinase C)
# Assay Context: 100 μM
Counter-ions that a name gives are not always drawn.
Give bare numbers, in %.

{"columns": ["Compound", "Reported Value"],
 "data": [
  ["CCCCCCCCCCCCC(=O)N1CCCCC1CNC(=O)[C@@H](N)Cc1c[nH]cn1 (some centres unmarked) [dihydrochloride]", 28],
  ["CCCCCCCCCCCCC(=O)N1CCCCC1CNC(=O)CCN.O=C(O)/C=C/C(=O)O (centres unmarked)", 45],
  ["CCCCCCCCCCCCC(=O)N1CCCCC1CNC(=O)[C@@H](N)CCC(N)=O (some centres unmarked) [hydrochloride]", 17],
  ["CCCCCCCCCCCCC(=O)N1CCCCC1CNC(=O)C1CCCNC1 (centres unmarked) [hydrochloride]", 34]
]}

Hi! Can you tell me % inhibition @ 100 μM (3H-phorbol dibutyrate binding) for each of these compounds?
1. CCCCCCCCCCCCC(=O)N1CCCCC1CNC(=O)[C@@H](N)CC(=O)OCc1ccccc1 (some centres unmarked) [hydrochloride]
2. CCCCCCCCCCCCC(=O)N1CCCCC1CNC(=O)CN.Cl (centres unmarked)
3. CCCCCCCCCCCCC(=O)N1CCCCC1CNC(=O)[C@@H](N)CO (some centres unmarked) [hydrochloride]
4. CCCCCCCCCCCCC(=O)N1CCCCC1CNC(=O)[C@H](C)N (some centres unmarked) [hydrochloride]

Data returned:
2
21
9
49
